Experiment description: Stability experiments under 25° C.±2° C. and 65% R.H±5% R.H
Conditions used: month 6; 25° C./65% R.H

# Molecule, Description
measured = [
    ("CC[C@@H]([C@H](C)OP(=O)(O)O)n1ncn(-c2ccc(N3CCN(c4ccc(OC[C@@H]5CO[C@@](Cn6cncn6)(c6ccc(F)cc6F)C5)cc4)CC3)cc2)c1=O [Example 3]", "White"),
    ("CC[C@@H]([C@H](C)OP(=O)([O-])[O-])n1ncn(-c2ccc(N3CCN(c4ccc(OC[C@@H]5CO[C@@](Cn6cncn6)(c6ccc(F)cc6F)C5)cc4)CC3)cc2)c1=O.C[N+](C)(C)CCO.C[N+](C)(C)CCO [Comparative Example 1, Posaconazole Phosphate Bicholinate]", "White"),
    ("CC[C@@H]([C@H](C)OP(=O)(O)O)n1ncn(-c2ccc(N3CCN(c4ccc(OC[C@@H]5CO[C@@](Cn6cncn6)(c6ccc(F)cc6F)C5)cc4)CC3)cc2)c1=O.N=C(N)NCCC[C@H](N)C(=O)O [Comparative Example 5, Posaconazole Phosphate Monoarginine Salt]", "White"),
]

====

Below is a list of entries, each paired with its recorded Content value.
Experiment description: Stability experiments under 40° C.±2° C. and 75% R.H±5% R.H (accelerated test)
Type: physicochemical
Conditions used: month 3; 40° C./75% R.H
Measure: Content (%)

# Compound, Unit tag, Readout value
data = [
    ("CC[C@@H]([C@H](C)OP(=O)(O)O)n1ncn(-c2ccc(N3CCN(c4ccc(OC[C@@H]5CO[C@@](Cn6cncn6)(c6ccc(F)cc6F)C5)cc4)CC3)cc2)c1=O [Example 1, Posaconazole Phosphate Monocholinate]", "%", 99.85),
    ("CC[C@@H]([C@H](C)OP(=O)(O)O)n1ncn(-c2ccc(N3CCN(c4ccc(OC[C@@H]5CO[C@@](Cn6cncn6)(c6ccc(F)cc6F)C5)cc4)CC3)cc2)c1=O.CNC[C@H](O)[C@@H](O)[C@H](O)[C@H](O)CO", "%", 99.50),
]

====

Experiment description: Stability experiments under 25° C.±2° C. and 65% R.H±5% R.H
Conditions used: month 0; 25° C./65% R.H
Measure: Related substance (%)

# Compound, Measure, Unit tag, Readout value
measured = [
    ("CC[C@@H]([C@H](C)OP(=O)(O)O)n1ncn(-c2ccc(N3CCN(c4ccc(OC[C@@H]5CO[C@@](Cn6cncn6)(c6ccc(F)cc6F)C5)cc4)CC3)cc2)c1=O.N=C(N)NCCC[C@H](N)C(=O)O [Comparative Example 5, Posaconazole Phosphate Monoarginine Salt]", "Related substance", "%", 0.13),
    ("CC[C@@H]([C@H](C)OP(=O)(O)O)n1ncn(-c2ccc(N3CCN(c4ccc(OC[C@@H]5CO[C@@](Cn6cncn6)(c6ccc(F)cc6F)C5)cc4)CC3)cc2)c1=O [Example 1, Posaconazole Phosphate Monocholinate]", "Related substance", "%", 0.13),
    ("CC[C@@H]([C@H](C)OP(=O)(O)O)n1ncn(-c2ccc(N3CCN(c4ccc(OC[C@@H]5CO[C@@](Cn6cncn6)(c6ccc(F)cc6F)C5)cc4)CC3)cc2)c1=O.CNC[C@H](O)[C@@H](O)[C@H](O)[C@H](O)CO", "Related substance", "%", 0.13),
]

====

Experiment description: in vivo
Conditions used: female, mouse, plasma, iv, 1 mg/kg

# Compound, concentration at 0.25 h
records = [
    ("CC[C@@H]([C@H](C)OP(=O)(O)O)n1ncn(-c2ccc(N3CCN(c4ccc(OC[C@@H]5CO[C@@](Cn6cncn6)(c6ccc(F)cc6F)C5)cc4)CC3)cc2)c1=O [Example 1, Posaconazole Phosphate Monocholinate]", "5560 ng/mL"),
]
